test: Cell Viability - LYMP2-021 (AID 974);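 also: compound exposure lasts 24 hours at 37 °C; nearly all actives have a fitted effect of over 55% in size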
experimentalParameters: LYMP2-021 lymphoblastoid cells viability; series mostly up to 92.2 µM
Results filed as inconclusive are left out. Active and inactive are the calls of the source. Calls follow the shape of the dose curve; as a rule, active = well fitted cell-killing curve with a large enough effect; inconclusive = small, poorly fitted or top-dose-only effect; inactive = flat fitted curve, though single readings scatter.
Labels: 1 for active, 0 for inactive

> print(dat)
                                    molecule  classlabel
 1                                c1nc[nH]n1           0
 2  ClC1=C(Cl)C2(Cl)C3C4CC(C5OC45)C3C1(Cl)C2(Cl)Cl (stereo unspecified)           1
 3  COC1=CC(=O)O[C@@H](/C=C/c2ccc3c(c2)OCO3)C1           0
 4                                Brc1ccccc1           0
 5       ClC(Cl)=C(c1ccc(Cl)cc1)c1ccc(Cl)cc1           0
 6                             O=C=NC1CCCCC1           0
 7                           Oc1ccc(Cl)cc1Cl           0
 8              O=[N+]([O-])c1ccc(Cl)c(Cl)c1           0
 9                            CCOc1ccc(N)cc1           0
10                               CCCSC(=O)Cl           0
11        COP(=S)(OC)Oc1ccc([N+](=O)[O-])cc1           0
12              CCC[CH2][Sn]([Cl])([Cl])[Cl]           0
13                                  CC(Cl)Cl           0
14                                 C=CC(C)=O           0
15                          Clc1ccc2ccccc2c1           0
16                             COc1ccc(N)cc1           0

###

Quick reference for max response among some compounds
test: qHTS Assay for Lipid Storage Modulators (AID 1519)
experimentalParameters: Drosophila S3 cells, BODIPY lipid droplet/cell ratio, laser cytometry; measured here: cell count channel max response; cells loaded with oleic acid
Results filed as inconclusive are left out.

compound	max response [%]
CC1Cc2cc3c(cc2C(c2ccc(N)cc2)=NN1)OCO3 (stereo unspecified)	56.1
CC(=O)CC1CCCCN1 (stereo unspecified)	11.3
CN1CCCC2(CCN(C(=O)c3ccco3)CC2)C1	-24.9
CCCCCCCCCc1ccc(O)cc1	4.78
COc1ccc(OC)c([C@H](O)[C@H](C)N)c1	7.1
O=C(NC[C@@H]1CCCCN1)c1cc(OCC(F)(F)F)ccc1OCC(F)(F)F	-18.7
c1ccc(CN2CCCC3(CCNCC3)C2)cc1	3.6
NC(Cn1ccc(=O)[nH]c1=O)C(=O)O (stereo unspecified)	-18.2
ClC1=C(Cl)C2(Cl)C3C(Cl)C=CC3C1(Cl)C2(Cl)Cl (stereo unspecified)	11.3
CCN(CC)C(=O)N[C@@H]1C[C@@H]2c3cccc4[nH]cc(c34)C[C@H]2N(C)C1	28.2
C[C@H](CCC(=O)O)[C@H]1CC[C@@H]2[C@H]3CC[C@H]4C[C@@H](O)CC[C@@]4(C)[C@H]3CC[C@]21C	-11.2
CC(C)Nc1nc(Cl)nc(NC(C)C)n1	5.6
CN1C2CC(OC(=O)C(CO)c3ccccc3)C[C@@H]1[C@H]1OC21 (stereo partly specified)	12.9
CCc1cccc(C)c1N(C(=O)CCl)C(C)COC (stereo unspecified)	1.84
O=C(CC[N+](=O)[O-])OCC1OC(O)C(OC(=O)CC[N+](=O)[O-])[C@@H](OC(=O)CC[N+](=O)[O-])C1OC(=O)CC[N+](=O)[O-] (stereo partly specified)	13
CC(C)N1C(=O)c2ccccc2NS1(=O)=O	13.1
C=C1C2CC[C@@]3(C)C(c4ccoc4)OC(=O)C[C@@]13OC1CC(=O)C(C)(C)C(C(OC(C)=O)C(=O)OC)[C@@]12C (stereo partly specified)	4.29
O=C1c2ccccc2-c2cccc3cccc1c23	9.47
CNC(=O)Oc1ccc2c(c1)[C@@]1(C)CCN(C)[C@@H]1N2C	-3.51
CCN1C[C@@]2(COC)CC[C@H](O)[C@@]34[C@@H]2C[C@@H]([C@@H]13)[C@]1(O)C[C@@H](OC)C2C[C@H]4[C@H]1[C@H]2OC(C)=O	-6.46
CC(C)C[C@H]1C(=O)N2CCC[C@@H]2[C@]2(O)O[C@](NC(=O)[C@H]3C=C4c5cccc6[nH]c(Br)c(c56)C[C@H]4N(C)C3)(C(C)C)C(=O)N12	-7.2
CNC(C)[C@H](O)c1ccccc1 (stereo partly specified)	21.5
c1cc2c(cc1C1OC[C@@H]3C(c4ccc5c(c4)OCO5)OCC13)OCO2 (stereo partly specified)	12.5
CC1CC[C@@]2(NC1)O[C@@H]1C[C@H]3C4CC=C5C[C@@H](O)CC[C@]5(C)C4CC[C@]3(C)[C@H]1[C@@H]2C (stereo partly specified)	-0.557
CC1(C)N([O-])[N+](=O)C1(C)Br (stereo unspecified)	-4.64
C[C@@H](C(=O)O)c1ccc(-c2ccccc2)c(F)c1	2.3
CCCN1CCC[C@@H]2Cc3n[nH]cc3C[C@H]21	9.58
FC(F)(F)c1cccc(N2CCNCC2)c1	-7.45
CC1OC(O[C@@H]2C(O)CC(O[C@@H]3C(O)C[C@@H](OC4CC[C@]5(C)[C@H](CC[C@H]6[C@@H]5CC[C@]5(C)C(C7=CC(=O)OC7)C(O)C[C@@]65O)C4)OC3C)OC2C)CC(O)C1O (stereo partly specified)	12.5
CC(=O)OC1C2C(OC(=O)Cc3ccccc3)C(C)CC2(OC(C)=O)C(=O)/C(C)=C/C2C(CC[C@@]13CO3)C2(C)C (stereo partly specified)	-2.07
NCC#Cc1ccccc1	-80.1
O=C(NCNC(=O)N[C@H]1C(=O)NC(=O)N1CO)N[C@H]1C(=O)NC(=O)N1CO	-9.3
c1cc(CN2CCCC3(CCNCC3)C2)ccn1	11
COP(N)(=O)SC (stereo unspecified)	0.934
CCCC[N+]1(C)C2CC(OC(=O)C(CO)c3ccccc3)CC1C1OC12 (stereo unspecified)	13.3
C[C@@]12CCC(O)C[C@H]1CCC1C2CC[C@]2(C)C(=O)CCC12 (stereo partly specified)	7
COc1cc([C@H]2c3cc4c(cc3[C@@H](O)[C@@H]3COC(=O)[C@H]23)OCO4)cc(OC)c1OC	-10.2
C/C=C1\C[N@@+]2(C)CC[C@@]34C(=C(C=O)[C@H]1C[C@H]32)Nc1ccccc14	-3.08
CCc1cccc(CC)c1N(COC)C(=O)CCl	-0.808
Cc1c(O)c(O)cc2c1CC=C1[C@]3(C)CC[C@]4(C)CC[C@@](C)(C(=O)O)CC4[C@]3(C)CC[C@]12C (stereo partly specified)	19.2
CC(C)CN1CCC2(CC1)CCN(S(C)(=O)=O)CC2	-15.1

###

Quick reference for activity among some molecules
system: Phenylethanolamine N-methyltransferase (Homo sapiens)
test: Confirmatory Screen for Target Class Profiling of Small Molecule Inhibitors of Methyltransferases (AID 1745852)
experimentalParameters: MTase-Glo luminescence, SAH detection, recombinant enzyme; measured here: PNMT max response; stronger effect = lower value
assayReadout: activity (%)

> print(dat)
                                   molecule  measured
1         COc1ccc(-c2cc3c(cn2)CN(C)CCN3)cn1     -1.09
2  CC(=O)c1cccc(NC(=O)NC[C@H]2C[C@@H]3CCN2C[C@@H]3c2cc(-c3ccc(F)cc3)nc(C)n2)c1      3.37
3  C=C[C@H]1CN2CC[C@H]1C[C@@H]2CNC(=O)Nc1ccc(Br)cc1      4.01
4        CNC1CCc2ccccc21 (stereo not drawn)     -50.7
5  COc1ccc(-c2cc([C@H]3CN4CC[C@H]3C[C@@H]4CN)nc(C)n2)cc1OC      2.63
6  CC[C@H]1CN2CC[C@H]1C[C@@H]2CNCc1ccc(-c2ccccc2)cc1     -4.01
7  C[C@H]1CCCC(=O)CCC/C=C/c2cc(O)cc(O)c2C(=O)O1       -95
8  CC(=O)NC[C@H]1C[C@@H]2CCN1C[C@@H]2c1cc(-c2ccc3ccccc3c2)nn1C       2.7

###

test: SW1088 Cancer Cell Toxicity qHTS against the NCATS CANVASS Library (AID 1347350); also: % is scaled to controls: 0 for no effect and ±100 for the full control effect; nearly all actives have a fitted effect of over 75% in size
experimentalParameters: SW1088 viability, CellTiter-Glo luminescence, 72 h; series mostly up to 38.3 µM
Inconclusive results are not listed. The source made the active and inactive calls. The call rests on the fitted dose curve; in most records, active means well fitted cell-killing curve with a large enough effect; inconclusive means small, poorly fitted or top-dose-only effect; inactive means flat fitted curve, though single readings scatter.
assayReadout: outcome

> print(dat)
                             chemicalsmiles  assayreadout  measured
1             C[N+](C)(C)CCc1c[nH]c2ccccc12       outcome  inactive
2  CO[C@H]([C@@H](C)[C@H]1O[C@]1(C)C[C@H](C)/C=C/C=C(\C)[C@H]1O[C@@H](CC(=O)O)CC[C@@H]1C)[C@@H](C)O       outcome  inactive
3  CC[C@]12C=CCN3CC[C@]4(C(=C(C(=O)OC)C1)Nc1ccccc14)[C@@H]32       outcome  inactive
